// provenance: BindingDB's records for doi:10.1021/jm9903242

# protocol.notes: Antiviral activity using H1HeLa cells (ATCC) infected with HRV-14
param class (str): category from EC50; see ranges c1 = under 6 µM, c2 = from 6 µM up to 30 µM, c3 = 30 µM and over

Ask | Hey, which category is "CCOC(=O)/C=C/c1cc(CN2CCN(c3ccccn3)CC2)cc(C(N)=O)c1" in, do you know?
Reply | c1

Ask | Hey, which category is "NC(=O)c1cccc(/C=C/C(=O)OCc2ccccc2)c1" in, do you know?
Reply | c1

Ask | Hey, which category is "CCOC(=O)/C=C/c1cc(C(N)=O)ccc1C" in, do you know?
Reply | c3

Ask | Hey, which category is "CCOC(=O)/C=C/c1cc(CN(CC)Cc2ccncc2)cc(C(N)=O)c1" in, do you know?
Reply | c1

Ask | Hey, which category is "CCOC(=O)/C=C/c1ccc(OCc2ccccc2)c(C(N)=O)c1" in, do you know?
Reply | c3

Ask | Hey, which category is CC(=O)C=Cc1cccc(C(N)=O)c1 [3-(3-Oxo-but-1-enyl)-benzamide] in, do you know?
Reply | c3

Ask | Hey, which category is "CCOC(=O)/C=C/c1cc(CN2CCN(c3ccccc3C#N)CC2)cc(C(N)=O)c1" in, do you know?
Reply | c1

Ask | Hey, which category is "CCOC(=O)/C=C/c1cc(O)cc(C(N)=O)c1" in, do you know?
Reply | c3

Ask | Hey, which category is "NC(=O)c1cccc(/C=C/C(=O)c2ccccn2)c1" in, do you know?
Reply | c3

Ask | Hey, which category is "CCOC(=O)/C=C/c1cc(CSc2nnc(-c3ccccn3)o2)cc(C(N)=O)c1" in, do you know?
Reply | c1

Ask | Hey, which category is "NC(=O)c1cccc(/C=C/C(=O)c2ccco2)c1" in, do you know?
Reply | c3

Ask | Hey, which category is NC(=O)c1cccc(/C=C/C(=O)c2ccccc2)c1 [3-(3-Oxo-3-phenyl-propenyl)-benzamide] in, do you know?
Reply | c2

Ask | Hey, which category is "NC(=O)c1cccc(/C=C/C(=O)OCCO)c1" in, do you know?
Reply | c2

Ask | Hey, which category is "NC(=O)c1cccc(/C=C/C(=O)OCCc2ccccc2)c1" in, do you know?
Reply | c3

Ask | Hey, which category is "CCOC(=O)/C=C/c1cc(CN2CCN(c3ncccn3)CC2)cc(C(N)=O)c1" in, do you know?
Reply | c1

Ask | Hey, which category is "COC(=O)/C=C/c1cccc(C(N)=O)c1" in, do you know?
Reply | c3

Ask | Hey, which category is "CCOC(=O)/C=C/c1cc(CN2CCN(C(=O)OCC)CC2)cc(C(N)=O)c1" in, do you know?
Reply | c1

Ask | Hey, which category is "CCOC(=O)/C(C#N)=C/c1cccc(C(N)=O)c1" in, do you know?
Reply | c3

Ask | Hey, which category is "CCOC(=O)/C=C/c1cc(CO)cc(C(N)=O)c1" in, do you know?
Reply | c3

Ask | Hey, which category is "CCOC(=O)/C=C/c1cccc(C(N)=O)c1" in, do you know?
Reply | c2
